Details: in ethyl acetate, 298.15 K
recorded.endpoint: solubility (mole fraction)
Enter the number alone.

Which measured solubility (mole fraction) value corresponds to C[C@@H]1CC[C@H]2[C@@H](C)C(=O)O[C@@H]3O[C@@]4(C)CC[C@@H]1[C@]32OO4 ?
0.0153

###

Conditions: in toluene, 313.15 K
recorded.endpoint: solubility (mole fraction)
Provide a numeric answer; units are not to be included.

Look up solubility (mole fraction) for this compound: C[C@@H]1CC[C@H]2[C@@H](C)C(=O)O[C@@H]3O[C@@]4(C)CC[C@@H]1[C@]32OO4
0.0937

###

Settings: in ethyl acetate, 323.15 K
recorded.endpoint: solubility (mole fraction)

Given the entry C[C@@H]1CC[C@H]2[C@@H](C)C(=O)O[C@@H]3O[C@@]4(C)CC[C@@H]1[C@]32OO4 , report its measured solubility (mole fraction).
0.0657
